System: M14 melanoma
MEASUREMENT DESCRIPTION: NCI tumour cell line growth inhibition, 48 h
ASSAY ENDPOINT: TGI

What does the data say about its TGI? Entry: C=CC[P@]1(=O)O[C@H](c2ccccc2)[C@H](C)N1C
> 100 µM

Thanks! And CCC[CH2][Sn]([CH2]CCC)([O]C(=O)CN)[O]C(=O)CN ?
> 100 µM

Same thing, different molecule: O=C1COc2cc(NC(=S)Nc3ccccc3)ccc2N1
> 100 µM

Now try COc1ccc(Cn2c3c(cc(OC(C)=O)c2=O)Cc2ccccc2-3)cc1 .
17.9 µM

Input Cc1c(-c2ccccc2)cc(O)c2nc3ccccc3n12
> 100 µM

Then this molecule: C=C(C)[C@@H]1CC[C@]2(COCCCN)CC[C@]3(C)[C@H](CC[C@@H]4[C@@](C)(CCCNCCCN)[C@H](C(=C)C)CC[C@]43C)[C@@H]12
3.62 µM

Note, next up: CC1(C)OCN(c2ccc(N3CCOCC3)cc2)Cn2c1nc1ccccc12
> 100 µM

And then CCOC(=O)c1sc(=S)n(-c2ccc(Cl)cc2)c1-n1cc(-c2ccccc2)c(C#N)c1N , what is it?
> 100 µM

Now give it for CNC(=O)OCc1nc(SSC(C)(C)C)n(C)c1COC(=O)NC too.
4.13 µM

What do you have for CC(=O)OC1OC([C@H]2c3cccc(O)c3C(=O)c3c(O)cc(C)cc32)C(O)C(O)C1O (stereo not given in full) ?
3.85 µM

###

Tested on: SF-268 CNS
MEASUREMENT DESCRIPTION: NCI tumour cell line growth inhibition, 48 h
ASSAY ENDPOINT: TGI

# TGI lookup, item COc1ccc2c(c1)OC1=C(C(=O)OC1)C2c1cc(OC)c2c(c1)OCCO2 (stereo not given)
> 100 µM

Follow-up item: CC(C)(C)c1cc([N+](=O)[O-])cc([N+](=O)[O-])c1O
> 10 µM

And C=C(C)C1CC2(C)C(C)CC(O)CC2C(OC(=O)C=C(C)C)C1O (stereo not given) ?
> 100 µM

// same read-out, input: O=C1/C(=C\c2ccc([N+](=O)[O-])cc2)N(S(=O)(=O)c2ccccc2)c2ncccc21
70.7 µM

Another compound to look at: OC(CNc1ccccn1)c1ccccc1 (stereo not given)
> 100 µM

And then CS(=O)(=O)CCNCc1coc(-c2ccc3ncnc(Nc4ccc(OCc5ccccc5)cc4)c3c2)c1 , what is it?
7.5 µM

Also O=C(NC(=O)c1c(F)cccc1F)Nc1cccc(Oc2ncc(Cl)cn2)c1 ?
77.3 µM

And for N[C@H](C(=O)O)[C@@H]1CC(Cl)=NO1 ?
> 848 µM

Another compound to check: Nc1n[nH]c2cccc(C#Cc3cccc(NC(=O)c4cccc(C(F)(F)F)c4)c3)c12
16.3 µM

Okay, and C=C1C(=O)OC2/C=C(\C(=O)O)CC/C=C(\C)CC(OC(=O)/C=C(\C)CC)C12 (stereo not given) ?
30.6 µM

Same thing, different compound: CC12C=CC(C)(C3C(=O)C4C(C(=O)C31)C1(C)C=CC4(C)S1=O)S2=O (stereo not given)
> 100 µM

Subsequent entry: CCOC(=O)[CH-]C(=O)C12CC3CC(CC(C3)C1)C2.CCOC(=O)[CH-]C(=O)C12CC3CC(CC(C3)C1)C2.CC[O-].CC[O-].[Ti+4]
> 100 µM

Another compound to check: O=C(Nc1cccc(O)c1)C(=O)C1C(=O)NC(=S)NC1=O
> 100 µM

Same for CC1C2CC(C(S(=O)(=O)O)C2=O)C1(C)C (stereo not given)
> 100 µM

And then CCOc1cccc(/C=N/NC(=O)c2cccc(Nc3ccnc(C(F)(F)F)c3)c2)c1O , what is it?
> 45.3 µM

Input O=c1[nH]c2ccccc2cc1-c1nc2ccc(Cl)cc2[nH]1
> 100 µM

Entry to check: CCCCCCCC(CC(=O)NC(CO)C(=O)NC(CO)CC(C)C)OC(=O)CC(CCCCCCC)OC(=O)CC(CCCCCCC)OC1OC(C)C(O)C(OC2OC(C)C(OC(C)=O)C(O)C2O)C1O (stereo not given)
23.3 µM

Then what about the compound Nc1ccccc1CCN1CCN(CCCc2ccccc2)CC1 ?
> 100 µM

Do the same for CC1(C)OCN(c2ccc(N3CCOCC3)cc2)Cn2c1nc1ccccc12 please
> 100 µM

O=C(Oc1ccc[nH]c1=O)c1cc([N+](=O)[O-])cc([N+](=O)[O-])c1 ?
> 100 µM

###

For each entry below, report its TGI value.
Tested on: TK-10 renal
MEASUREMENT DESCRIPTION: NCI tumour cell line growth inhibition, 48 h

Reported TGI, molecule O=C1C(=O)c2ccccc2C(O)=C1C(C1=C(O)c2ccccc2C(=O)C1=O)c1ccc(Cl)cc1 : ____
28.2 µM

Now consider Cn1c(Cl)c(/C=C2/C(=O)Nc3ccccc32)c2ccccc21 and answer again.
20.4 µM

Try the molecule O=S(=O)(C1=CC(S(=O)(=O)c2ccccc2)CN(Cc2ccccc2)C1c1cccc2ccccc12)c1ccccc1 (stereo not drawn)
> 69 µM

Can you handle N#Cc1ccc(-c2nc3c(N)ncnc3o2)cc1 next?
> 100 µM

Same thing, different molecule: CC/C=C\C[C@H]1CC=C2C(=O)C=C[C@@H]2CC=CCCCC(=O)O[C@@H](CCCCC)CC=C2C(=O)C=C[C@@H]2CC=CCCCC(=O)O[C@@H](CCCCC)CC=C2C(=O)C=C[C@@H]2CC=CCCCC(=O)O[C@@H](CCCCC)CC=C2C(=O)C=C[C@@H]2CC=CCCCC(=O)O1
> 7.9 µM

Would you mind doing O=C(/C=C/c1ccccc1)Nc1ncc(Cc2ccccc2Cl)s1 as well?
> 100 µM

And N#Cc1c(-c2ccc(Cl)cc2)c2c(n(C3OC(CO)C(O)C(O)C3O)c1=S)CCCC2 (stereo not drawn) ?
> 100 µM

Please give the result for CCCCCCCCn1ccc2cc(NC(=O)Cn3cc(CN4CCCCCC4)nn3)ccc21 too.
3.06 µM

Would you mind doing N#CSCC(Cl)=CCl (mixture of isomers) as well?
> 100 µM

Entry to check: N#C/C(=C/c1cccc(Oc2ccccc2)c1)c1ccccc1
> 100 µM

What about this molecule? Clc1ccc(CCN(CCc2ccc(Cl)c(Cl)c2)CCN2CCCC2)cc1Cl
3.17 µM

// query: COc1cc(NS(=O)(=O)c2ccc(C)cc2)c2nccnc2c1
> 100 µM

Subsequent entry: C=C(C)[C@@H]1CC[C@]2(COCCCN)CC[C@]3(C)[C@H](CC[C@@H]4[C@@](C)(CCCNCCCN)[C@H](C(=C)C)CC[C@]43C)[C@@H]12
3.15 µM

Also check CCOc1cc(C(C)(C)C)ccc1C1=N[C@H](c2ccc(Cl)cc2)[C@H](c2ccc(Cl)cc2)N1C(=O)N1CCN(CC#Cc2cccc3c2CN([C@@H]2CCC(=O)NC2=O)C3=O)CC1
44 µM

Repeat with Cc1nnc(-c2ccc(C)c(-c3ccc(C(=O)Nc4cccc(C#N)c4)cc3)c2)o1
> 25 µM

Next entry: O=c1[nH]c2cc(C(F)(F)F)ccc2nc1C(F)(F)F
> 100 µM

Now consider CCCC(C)c1ccc(OCCCCCCN2CCNCC2)cc1 (stereo not drawn) and answer again.
3.47 µM

Now try Cc1cc(C)nc(NS(=O)(=O)c2ccc(Nc3c4ccccc4nc4ccc(C(=O)Nc5ccc(S(N)(=O)=O)cc5)cc34)cc2)n1 .
> 100 µM

###

System: T-47D breast
MEASUREMENT DESCRIPTION: NCI tumour cell line growth inhibition, 48 h
ASSAY ENDPOINT: TGI

Param readout = TGI; param system = T-47D breast; param query = O=C(/C=C/c1ccc(O)c(O)c1)OCC(OC(=O)/C=C/c1ccc(O)c(O)c1)C(=O)O (stereo not drawn) ; response: value
> 100 µM

And then COC(=O)C1=C(OC(=O)/C(=C/c2ccccc2)c2ccc(Cl)cc2Cl)C(C(=O)OC)[C@@]2(O)[C@@H](C(=O)OC)[C@H](C)C[C@@H]1[C@@H]2C(=O)OC (stereo partly drawn) , what is it?
> 100 µM

Now consider O=C1/C(=C\c2ccc([N+](=O)[O-])cc2)N(S(=O)(=O)c2ccccc2)c2ncccc21 and answer again.
35 µM

And what about the compound CC(=O)OCC1OC(N2C(c3ccccc3)=CC(c3cccs3)C(C#N)=C2S)C(OC(C)=O)C(OC(C)=O)C1OC(C)=O (stereo not drawn) ?
> 100 µM

Subsequent entry: Cc1cc(C)nc(NS(=O)(=O)c2ccc(Nc3c4ccccc4nc4ccc(C(=O)Nc5ccc(S(N)(=O)=O)cc5)cc34)cc2)n1
> 100 µM

Now give it for CSC(SC)(C(=O)O)c1cc(-c2c(Cl)cccc2Cl)no1 too.
> 100 µM

Now consider Nc1ncnc2c1ncn2C1C=C(CO)C(O)C1O (stereo not drawn) and answer again.
10.2 µM

Can you check O=C(Oc1ccc[nH]c1=O)c1cc([N+](=O)[O-])cc([N+](=O)[O-])c1 next?
> 100 µM
